assayed-system: NADPH oxidase 4 (Homo sapiens) (UniProt Q9NPH5)
Sequence (Q9NPH5 whole entry, looked up): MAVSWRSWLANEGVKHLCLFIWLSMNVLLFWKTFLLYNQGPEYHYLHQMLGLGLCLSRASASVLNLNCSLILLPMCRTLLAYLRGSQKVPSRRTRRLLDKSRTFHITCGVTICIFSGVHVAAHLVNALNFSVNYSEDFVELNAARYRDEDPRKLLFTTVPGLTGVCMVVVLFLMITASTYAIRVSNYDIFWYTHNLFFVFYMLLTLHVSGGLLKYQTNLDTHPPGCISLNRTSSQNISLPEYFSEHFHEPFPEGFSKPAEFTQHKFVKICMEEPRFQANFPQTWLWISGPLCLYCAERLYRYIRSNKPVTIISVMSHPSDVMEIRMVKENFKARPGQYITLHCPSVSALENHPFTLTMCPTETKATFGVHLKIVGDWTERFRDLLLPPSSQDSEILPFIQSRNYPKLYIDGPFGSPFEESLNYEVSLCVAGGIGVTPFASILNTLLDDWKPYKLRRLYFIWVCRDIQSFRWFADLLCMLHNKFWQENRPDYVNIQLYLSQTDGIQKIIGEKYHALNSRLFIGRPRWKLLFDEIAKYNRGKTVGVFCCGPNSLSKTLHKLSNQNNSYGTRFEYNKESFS
assay-summary: NOX4-dependent H2O2 signal modulators, primary screen, NOX inhibitor project, cell-based, HEK293-NOX4, tetracycline-induced, Amplex Red fluorescence (AID 1160)
experimental-setup: 45 min, higher = more signal, called active from +8 up or from −8 down
experimental-readout: z-score

> print(dat)
                                   compound  quantitative.result
1  Cc1ccc(S[C@]2(C(=O)NC3CC3)CC(=O)N(Cc3ccccc3)[C@@H]2c2ccc(CO)cc2)cc1                 1.09
2  CC(C)(C)N1CC=CC23O[C@@H]4/C=C\CCCOC(=O)C4[C@H]2C(=O)N(CCO)[C@@H]3C1=O (stereo partly drawn)               0.0377
3  COC(=O)[C@@]1(Cc2ccccc2)[C@H]2c3cc(C(=O)N(C)C)n(Cc4c(-c5ccccc5)noc4C)c3C[C@H]2CN1C(=O)c1ccccc1                 1.32
4  CCCNC(=O)[C@@H]1c2ccccc2C(=O)N(Cc2ccccc2)[C@H]1c1ccc(CO)cc1                -1.63
5  CC(=O)NCCCC[C@@H]1NC(=O)[C@@H]2C[C@H](C(=O)NCCCCN(C)C)[C@H](c3ccc(O)cc3)N2C1=O                0.192
6  C=C(CCCC)C(=O)CC[C@H](OC(=O)c1cccnc1)c1cccc(OCCO)c1               -0.417
7  CCOC(=O)C[C@H]1[C@H](OC(=O)c2ccc(C(=O)c3ccccc3)cc2)[C@@H](NC(=O)C2CCCCC2)c2cc(OCCCO)ccc2N1C(=O)c1ccccc1                 1.26
8                     COc1cc(CO)ccc1OC(C)=O                -1.36

* * *

assay-summary: binders of probe aFGF10 on microarray, primary screen, stem cell growth factor project, biochemical, small-molecule microarray, fluorescence 635/667 (AID 1071);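 further: score merges 667 nm spot intensity and signal to noise from triplicate slides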
experimental-setup: higher = more signal
Criterion: composite z-score meeting or surpassing 0.4. Met: criterion met. Not met: criterion not met.

compound	classification
C=CCOC(=O)[C@H]1[C@@H]2C(=O)O[C@@H](c3ccccc3)[C@@H](c3ccccc3)N2[C@@H](c2ccc(OCCOC(=O)[C@@H]3C[C@@H]4C(=O)N5CCC[C@H]5C(=O)N4[C@@H]3c3ccc(O)cc3)cc2)[C@]12C(=O)Nc1ccccc12	criterion not met
[N-]=[N+]=Nc1ccccc1[C@@H]1OC(c2ccc(OCCCO)cc2)=N[C@]1(CCS(=O)(=O)c1ccccc1)C(=O)N1CCOCC1	criterion met
O=C1N(CCS(=O)(=O)c2ccccc2)Cc2ccccc2C[C@]12N=C(c1ccc(OCCCO)cc1)O[C@@H]2c1ccccc1	criterion not met
CCOC(=O)C1=C[C@@H](C(C)C)N(S(=O)(=O)c2ccc(C)cc2)[C@H]1c1ccc(C(C)C)cc1	criterion met
COCCOC(=O)N1C(=O)[C@@]2(c3cc(C#CCNC(N)=O)ccc31)[C@H](c1ccc(O)cc1)N1[C@H](c3ccccc3)[C@H](c3ccccc3)OC(=O)[C@H]1[C@@H]2C(=O)Nc1nc2ccccc2s1	criterion met
COCCOC(=O)N1C(=O)[C@@]2(c3cc(C#CC4(O)CCCCCC4)ccc31)[C@H](C(=O)N1CCCCCCC1)[C@H]1C(=O)O[C@H](c3ccccc3)[C@H](c3ccccc3)N1[C@@H]2c1ccccc1OCCO	criterion not met
N#Cc1ccc(NN2C(C(O)c3ccc([N+](=O)[O-])cc3)C=CC3C(=O)N(c4ccccc4)C(=O)C32)cc1 (stereo unspecified)	criterion met
COCCCNC(=O)[C@@]1(CCC(=O)OC(C)(C)C)N=C(c2ccc(OCCCO)cc2)O[C@H]1c1ccccc1CN=[N+]=[N-]	criterion met
O=C(CS)NCCCCCCNC(=O)[C@@H]1C[C@@H]2C(=O)N3CCC[C@H]3C(=O)N2[C@@H]1c1ccc(O)cc1	criterion met
COCCOC(=O)N1C(=O)[C@@]2(c3cc(C#CCC(C(=O)OC)C(=O)OC)ccc31)[C@H](c1ccccc1OCCO)N1[C@H](c3ccccc3)[C@H](c3ccccc3)OC(=O)[C@H]1[C@@H]2C(N)=O	criterion met
CCOC(=O)C1=C[C@@H](CC)N(S(=O)(=O)c2ccc(C)cc2)[C@H]1c1ccccc1	criterion met
O=c1cccc(CCc2ccccc2)o1	criterion not met
O=C(CS)NCCCCCCNC(=O)[C@H]1C[C@H]2C(=O)N3CCC[C@H]3C(=O)N2[C@H]1c1cccc(OCCO)c1	criterion met
[N-]=[N+]=NCc1ccccc1[C@H]1OC(c2ccc(OCCCO)cc2)=N[C@@]1(CCS(=O)(=O)c1ccccc1)C(=O)N1CCOCC1	criterion met
CO[C@H]1O[C@H](CO)[C@@H](OC(=O)Nc2ccc3c(c2)OCO3)[C@H](OC(=O)Nc2ccccc2)[C@H]1OC(=O)Nc1ccccc1	criterion met
CCN(CC)c1ccc(N2CC=CC34O[C@@H]5C=CCCOC(=O)C5[C@H]3C(=O)N(CCCCCO)[C@@H]4C2=O)cc1 (stereo partly specified)	criterion not met
C=C[C@@H](COC(C)=O)N(Cc1ccccc1[N+](=O)[O-])S(=O)(=O)c1ccc(Br)cc1	criterion not met
O=C1O[C@H](c2ccccc2)[C@H](c2ccccc2)N2[C@H]1[C@@H](C(=O)O)[C@]1(C(=O)Nc3ccc(C#CC4(O)CCCCCC4)cc31)[C@H]2c1ccc(OCCO)cc1	criterion met
C=CCC(OC(C)=O)[C@@H]1[C@@H](N(Cc2cccc3ccccc23)C(=O)c2cccc3ccccc23)c2cc(OCCCO)ccc2N1C(=O)c1ccc2ccccc2n1 (stereo partly specified)	criterion not met
C=C[C@@H](COC(C)=O)N(Cc1ccc([N+](=O)[O-])cc1)S(=O)(=O)c1ccc(Br)cc1	criterion met
CCOC(=O)C[C@H]1[C@H](OC(=O)c2ccccc2-c2ccccc2)[C@@H](NC(=O)c2ccc3ccccc3c2)c2cc(OCCCO)ccc2N1C(=O)c1ccc2ccccc2n1	criterion met
CC(c1ccccc1)C(O)C1C=CC2C(=O)NC(=O)C2N1Nc1ccccn1 (stereo unspecified)	criterion not met
CCOC(=O)C1=CC[C@@H](c2ccccc2)N(S(=O)(=O)c2ccc(C)cc2)[C@H]1C(=O)OCC	criterion met
O=C1OCCC/C=C\[C@H]2OC34C=CCN(Cn5nnc6ccccc65)C(=O)[C@H]3N(CCCCCO)C(=O)[C@@H]4C12 (stereo partly specified)	criterion not met

Where do the numbers come from? From PubChem BioAssay.
